Tested on: Enterococcus faecalis
experimental details: Antibacterial activity against vancomycin-susceptible Enterococcus faecalis ATCC29212 assessed as bacterial growth inhibition incubated for 20 hrs by CLSI based broth microdilution method
Assay type: functional
Item-by-item account of MIC

These recorded examples may help you get a feel for the data.
{"compound": "NC(=O)c1c(F)ccc(OCc2nc3cc(Cl)cnc3s2)c1F", "result": "> 64 µg/mL"}
{"compound": "C[n+]1cc(-c2ccccc2)cc(/C=C/c2ccccc2[N+](=O)[O-])c1-c1ccccc1.I", "result": "> 64 µg/mL"}
{"compound": "COc1ccc2cc3[n+](cc2c1OC)CCc1cc2c(cc1-3)OCO2 [BERBERINE]", "result": "> 64 µg/mL"}

Kindly review the next compound as well.
Given the entry C=CC1=C(C(=O)O)N2C(=O)[C@@H](NC(=O)/C(=N\OCC(=O)O)c3csc(N)n3)[C@H]2SC1 [CEFIXIME] , report its measured MIC. > 64 µg/mL

----------
Tested on: Staphylococcus aureus
experimental details: Antibacterial activity against methicillin-resistant Staphylococcus aureus ATCC43300 assessed as bacterial growth inhibition incubated for 20 hrs by CLSI based broth microdilution method
Type: functional
assay readout: MIC (µg/mL)
Your answer should be a plain number; it is taken to be in µg/mL.

{"structure smiles": "CC1(C)S[C@@H]2[C@H](NC(=O)[C@H](NC(=O)N3CCN(S(C)(=O)=O)C3=O)c3ccccc3)C(=O)N2[C@H]1C(=O)O", "measured target": "Staphylococcus aureus", "assay readout": "MIC", "quantitative result": 16}
{"structure smiles": "CCCCCCCOc1ccc(/C=C/c2cc(-c3ccccc3)c[n+](C)c2-c2ccccc2)cc1.[I-]", "measured target": "Staphylococcus aureus", "assay readout": "MIC", "quantitative result": 8}
{"structure smiles": "CCCCCCOc1ccc(/C=C/c2cc(-c3ccccc3)[n+](C)cc2-c2ccccc2)cc1.[I-]", "measured target": "Staphylococcus aureus", "assay readout": "MIC", "quantitative result": 2}
{"structure smiles": "C[n+]1cc(-c2ccccc2)c(/C=C/c2ccc(Cl)c(Cl)c2)cc1-c1ccc(C(C)(C)C)cc1.[I-]", "measured target": "Staphylococcus aureus", "assay readout": "MIC", "quantitative result": 1}
{"structure smiles": "Cc1ccccc1-c1c[n+](C)c(-c2ccc(C(C)(C)C)cc2)cc1/C=C/c1ccc(F)cc1.[I-]", "measured target": "Staphylococcus aureus", "assay readout": "MIC", "quantitative result": 0.5}
{"structure smiles": "CCCOc1ccc(/C=C/c2cc(-c3ccccc3)c[n+](C)c2-c2ccccc2)cc1.[I-]", "measured target": "Staphylococcus aureus", "assay readout": "MIC", "quantitative result": 2}
{"structure smiles": "C[n+]1cc(-c2ccccc2)c(/C=C/c2ccc(C(C)(C)C)cc2)cc1-c1ccccc1.[I-]", "measured target": "Staphylococcus aureus", "assay readout": "MIC", "quantitative result": 0.5}
{"structure smiles": "C[n+]1cc(-c2ccccc2)cc(/C=C/c2ccc(C#N)cc2)c1-c1ccccc1.[I-]", "measured target": "Staphylococcus aureus", "assay readout": "MIC", "quantitative result": 64}
{"structure smiles": "CC(C)c1ccc(/C=C/c2cc(-c3ccc4ccccc4c3)[n+](C)cc2-c2ccccc2)cc1.[I-]", "measured target": "Staphylococcus aureus", "assay readout": "MIC", "quantitative result": 0.5}
{"structure smiles": "C[n+]1cc(-c2ccccc2)c(/C=C/c2ccc(F)cc2)cc1-c1ccc(C(C)(C)C)cc1.[I-]", "measured target": "Staphylococcus aureus", "assay readout": "MIC", "quantitative result": 1}

Record lookup: for Staphylococcus aureus, what MIC belongs to `C[n+]1cc(-c2ccccc2)c(/C=C/c2ccc(O)cc2)cc1-c1ccccc1.[I-]` ? 32

----------
System: Staphylococcus aureus
experimental details: Antibacterial activity against Staphylococcus aureus clinical isolate assessed as bacterial growth inhibition incubated for 20 hrs by CLSI based broth microdilution method
Type: functional
Item-by-item account of MIC
Your answer should be a plain number; it is taken to be in µg/mL.

{"structure smiles": "Cc1ccccc1-c1c[n+](C)c(-c2ccc(C(C)(C)C)cc2)cc1/C=C/c1ccc(N(C)C)cc1.[I-]", "value unit": "µg/mL", "quantitative result": 0.25}

Given the entry `C[n+]1cc(-c2ccccc2)c(/C=C/c2ccc(N3CCCC3)cc2)cc1-c1ccc(C(C)(C)C)cc1.[I-]` , report its measured MIC. 0.5

Now consider `Cc1ccccc1-c1c[n+](C)c(-c2ccc(C(C)(C)C)cc2)cc1/C=C/c1ccc(O)cc1.[I-]` and answer again. 0.125

Now consider `CCCCCOc1ccc(/C=C/c2cc(-c3ccccc3)c[n+](C)c2-c2ccccc2)cc1.[I-]` and answer again. 1

----------
Item-by-item account of MIC
Tested on: Streptococcus pyogenes
experimental details: Antibacterial activity against erythromycin-resistant Streptococcus pyogenes 2 clinical isolate assessed as bacterial growth inhibition incubated for 20 hrs by CLSI based broth microdilution method
Assay type: functional

These recorded examples may help you get a feel for the data.
{"structure smiles": "CC[C@H]1OC(=O)[C@H](C)[C@@H](O[C@H]2C[C@@](C)(OC)[C@@H](O)[C@H](C)O2)[C@H](C)[C@@H](O[C@@H]2O[C@H](C)C[C@H](N(C)C)[C@H]2O)[C@](C)(O)C[C@@H](C)CN(C)[C@H](C)[C@@H](O)[C@]1(C)O", "measured target": "Streptococcus pyogenes", "result": "> 64 µg/mL"}
{"structure smiles": "COc1ccc2cc3[n+](cc2c1OC)CCc1cc2c(cc1-3)OCO2", "measured target": "Streptococcus pyogenes", "result": "> 64 µg/mL"}

Kindly review the next molecule as well.
Given the entry `C=CC1=C(C(=O)O)N2C(=O)[C@@H](NC(=O)/C(=N\OCC(=O)O)c3csc(N)n3)[C@H]2SC1` , report its measured MIC. < 0.062 µg/mL
